The values you see were collected from PubChem BioAssay (NCI).

// growth inhibition lookup, one value per entry
Test: NCI Yeast Anticancer Drug Screen. Data for the mgt1 strain (AID 153)
Conditions: S. cerevisiae mgt1 mutant growth inhibition; at 1.2 µM; stronger effect = higher value
This is part of a sample that, as a whole, favours compounds with a hit. Of some 79,000 tested, about 15% had one in any assay.
Numbers only here, please. The scale is %.

Worked examples follow.
Fc1ccc(Nc2ccc3ccccc3c2)cc1    -2
CC1C(c2ccccc2)SC(=N)N1C (configuration not stated)    -1
CCN(CC)CCCNc1ccc([N+](=O)[O-])c2nc3ccc(OC)cc3c(NCCCN(CC)CC)c12    2
COc1cc2c(cc1OC)[C@@H](Nc1ccc(C#N)cc1)C1COC(=O)[C@@H]1C2c1cc(OC)c(O)c(OC)c1 (some centres not stated)    -17
CCC(OC(C)=O)C1CC(C(C)C)CCC1C (configuration not stated)    -1

Here is another molecule to look at.
Query string: Consider the molecule CC(C)(N=Nc1ccc(Cl)cc1)[N+](=O)[O-] and give its measured growth inhibition.
Result string: 12

* * *

Assay: NCI Yeast Anticancer Drug Screen. Data for the mec2-1 strain (AID 157)
Details: S. cerevisiae mec2-1 strain, at 11.0 µM, stronger effect = higher value
Compounds without any hit were thinned out: in the full panel of roughly 79,000, 15% have a hit. The source made the active and inactive calls. Cut-off read from the data, not from the text of the source: active = growth inhibition above about 70%; inactive = the rest.
PROPERTY_MEASURED: growth inhibition

Worked examples follow.
CC1=NN(C(=O)c2ccccc2O)C(=O)/C1=C/c1ccco1    75% (active)
COc1c2c(c3c(c1CCC(=O)O)OC(C)(C)C=C3)OC(C)(C)C=C2    20% (inactive)

Here is another molecule to look at.
Query string: Consider the molecule CC(C)(CN1CCCCC1)C(=O)CC(SCCS(=O)(=O)O)c1ccccc1 (stereo not drawn) and give its measured growth inhibition.
Result string: 0% (inactive)

* * *

// growth inhibition lookup, one value per entry
Assay: NCI Yeast Anticancer Drug Screen. Data for the CLN2oe strain (AID 163);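 note: 0% = growth of vehicle-only control cultures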
Details: S. cerevisiae CLN2oe strain, at 3.7 µM, stronger effect = higher value
The panel holds about 79,000 compounds, 15% with a hit somewhere; the sample as a whole holds those more often.
Numbers only here, please. The scale is %.

Worked examples follow.
CC1=CC(=O)C=CC1=Nc1cc(Cl)c(O)c(Cl)c1    -9
N#CSCC1COc2ccccc2O1 (stereo not given)    -14
CN(C)/C(=N/C(=S)Nc1ccccc1)SCc1ccccc1    -11
CCC[CH2][Ge]([CH2]CCC)([CH2]CCC)[O]C(=O)C(O)c1ccccc1 (stereo not given)    5

Here is another compound to look at.
Query string: Consider the compound O=[N+]([O-])c1cc[n+]([O-])c(Cl)c1 and give its measured growth inhibition.
Result string: -4

* * *

Test: NCI Yeast Anticancer Drug Screen. Data for the sgs1 strain (AID 173);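 note: 0% = growth of vehicle-only control cultures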
Details: S. cerevisiae sgs1 mutant, at 100.0 µM, stronger effect = higher value
The panel holds about 79,000 compounds, 15% with a hit somewhere; the sample as a whole holds those more often.
PROPERTY_MEASURED: growth inhibition (%)
Numbers only here, please. The scale is %.

Worked examples follow.
COC(=O)/C(C#N)=C\NC(=S)C(N)=S    98
CC1CCC(C2=CSC3CCCCC3N2)CC1 (stereo unspecified)    67
O=C(O)c1c2ccc(Cl)cc2nc2[nH]c(=O)[nH]c(=O)c12    1
CC(=O)/C=C/c1cccc([N+](=O)[O-])c1    95
CCC(C)(C)c1ccc(Oc2ccccc2)c(N)c1    98
O=S(=O)(c1cccc(C(F)(F)F)c1)N1c2ccccc2-n2cccc2C1c1cccnc1 (stereo unspecified)    89
CCOP(=O)(OCC)/C(C#N)=C/c1cccc(Oc2ccccc2)c1    98
CC(C)C(=O)CC(Sc1ccc(N)cc1)c1ccccc1 (stereo unspecified)    79

Query string: Consider the compound COc1cccc(/C=C2\S/C(=N/Nc3nc(-c4ccc([N+](=O)[O-])cc4)cs3)NC2=O)c1O and give its measured growth inhibition.
Result string: 76

Query string: What do you have for CC(C)OC(=O)NNc1cccc(Cl)c1 ?
Result string: 98

Query string: What do you have for COc1ccc2cc3c4cc5c(cc4cc[n+]3cc2c1OC)OCO5 ?
Result string: 98

Query string: What do you have for O=C(Oc1ccc([N+](=O)[O-])cc1)c1ccc([N+](=O)[O-])cc1 ?
Result string: 43

Query string: What do you have for CC(C)(Br)C(=O)/C=C/c1ccccc1 ?
Result string: 80

Query string: What do you have for NNc1ccccc1-c1nc2ccccc2[nH]1 ?
Result string: 47

Query string: What do you have for COC(=O)C(=O)c1c(-c2ccc(Cl)c(Cl)c2)[nH]c2[nH]n(-c3ccccc3)c(=O)c2c1=O ?
Result string: 65

Query string: What do you have for CC1(C)CC(=O)C(C=NC(=S)C(N)=S)=C(O)C1 ?
Result string: 65

Query string: What do you have for Cc1cc2nc3ccccc3n2c2ccccc12 ?
Result string: -13

Query string: What do you have for CCCCCCCC/C=C\CCCCCCCCN ?
Result string: 96

Query string: What do you have for O=C(Cc1ccccc1)NN1C(=O)C(Cl)C1c1cc(Br)cc(Br)c1O (stereo unspecified) ?
Result string: 88

Query string: What do you have for S=C1N(c2ccc(Cl)cc2)C2=C(N=Nc3ccccc3)C(=Nc3ccccc3S2)N1c1ccccn1 ?
Result string: 99

Query string: What do you have for O/N=c1/ccn(O)c2ccccc12 ?
Result string: 96

Query string: What do you have for CC1=C(C)C(=O)C2=C(OCCO2)C1=O ?
Result string: 88

Query string: What do you have for CCC(=O)C1=C(O)c2cc(OC)ccc2CC1C(=O)OC (stereo unspecified) ?
Result string: 37

Query string: What do you have for COc1ccc(C(OCC2OC(n3cnc4c(=O)n(Cc5ccccc5[N+](=O)[O-])nnc43)C(O)C2O)(c2ccccc2)c2ccc(OC)cc2)cc1 (stereo unspecified) ?
Result string: 8

Query string: What do you have for O=C(O)c1ccccc1C(=O)OC1CCc2ccccc2C1 (stereo unspecified) ?
Result string: 45

Query string: What do you have for CN(C)N=Nc1ccc(N(C)C)cc1 ?
Result string: 28

Query string: What do you have for C=CCNC1=C2C[C@@H](C)C[C@H](OC)[C@H](O)[C@@H](C)/C=C(\C)[C@H](OC(N)=O)[C@@H](OC)/C=C\C=C(/C)C(=O)NC(=CC1=O)C2=O ?
Result string: 96

Query string: What do you have for Cc1cc(Cl)ccc1NC(=O)/C(Cl)=C(/Cl)C(=O)O ?
Result string: 99

Query string: What do you have for CCN(CC)C(=S)SC(=S)N(CC)CC ?
Result string: 98

Query string: What do you have for O=C(NCCNCCNC(=O)c1cc(-c2ccccc2)nc2ccccc12)c1cc(-c2ccccc2)nc2ccccc12 ?
Result string: 22

* * *

Experiment: NCI Yeast Anticancer Drug Screen. Data for the rad52 strain (AID 147);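 note: 0% = growth of vehicle-treated control cultures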
Conditions: S. cerevisiae rad52 mutant growth inhibition; at 11.0 µM
This is part of a sample that, as a whole, favours compounds with a hit. Of some 79,000 tested, about 15% had one in any assay. Active and inactive are the calls of the source. Rule as the data show it: active = growth inhibition above about 70%; inactive = the rest.
The reply should name one outcome from True = active, False = inactive

Worked set:
CCN(CC)CCNc1ccc2nc(C)n3c4ccc(OC)cc4c(=O)c1c23    False
O=S1(=O)CCC2=CC(C(F)(F)F)=CC(C(F)(F)F)=CN21    True
CO[C@@]1([C@@H](Cl)c2ccccc2)C(=O)N(C)/C(=C\c2ccccc2)C(=O)N1C    False
O=C1C=C(Br)C(=O)c2ccccc21    True
C[C@H](CCC1=NC(C)(C)CO1)C1CCC2[C@@H]3C(O)C[C@@H]4CC(O)CC[C@]4(C)C3CC[C@@]21C (stereo partly drawn)    False

Query string: Field: outcome | Entry: O=C(Nc1cccs1)c1ccccc1
Result string: False

Query string: What do you have for COC1=CCC23C(=O)C=CC(=O)C2(C1)C(=O)c1ccccc1C3=O (stereo not drawn) ?
Result string: False

Query string: What do you have for CCCCCc1c(CCCC)c(=O)[nH]c2cc(CNCC(OC)OC)ccc12 ?
Result string: False

Query string: What do you have for CC(C)(C)c1ccc2c(c1)C(=O)c1ccccc1C2=O ?
Result string: False

Query string: What do you have for O=C(c1ccccc1)[C@H]1Nc2ccc(Cl)cc2[C@H]2OCCC[C@@H]12 ?
Result string: False

* * *

// growth inhibition lookup, one value per entry
Experiment: NCI Yeast Anticancer Drug Screen. Data for the cln2 rad14 strain (AID 165);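 note: 0% = growth equal to vehicle treated cultures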
Details: S. cerevisiae cln2 rad14 strain, at 5.0 µM (retest, dose inferred, filed as 0.5), stronger effect = higher value
The panel holds about 79,000 compounds, 15% with a hit somewhere; the sample as a whole holds those more often.
Numbers only here, please. The scale is %.

Worked examples follow.
Cc1cccc2c(Cl)c3cccc(C)c3nc12    -33
N#Cc1nc(Nc2ccc(Cl)cc2)sc1N    39
O=C1/C(=C/c2ccc(Cl)c(Cl)c2)CNC/C1=C\c1ccc(Cl)c(Cl)c1    10
CN(C)CCNCCCNc1c2ccccc2nc2cccc([N+](=O)[O-])c12    80
O=C1C=C(Br)C(=O)c2ccccc21    5

Here is another molecule to look at.
Query string: Consider the molecule O=C1CC(C(O)(C(F)(F)F)C(F)(F)Cl)CCC1C(O)(C(F)(F)F)C(F)(F)Cl (stereo unspecified) and give its measured growth inhibition.
Result string: 44
